Data provenance: paper PMC6857474

Assay: in vivo
Conditions: male, mouse, liver, ip, 30 mg/kg
Non-standard residues stand in square brackets, D forms with d. Residues, ends and D or L forms follow the SMILES beside them. Dmt = Cc1cc(O)cc(C)c1C[C@H](N)C(=O)O
measurement type: AUC(0-t) (ng·h/mL)
Unit ng·h/mL implied. Number only.

[Q] Request the reported AUC(0-t) associated with Cc1cc(O)cc(C)c1C[C@H](NC(=O)[C@H](N)CCCNC(=N)N)C(=O)N[C@@H](CCCCN)C(=O)N[C@@H](Cc1ccccc1)C(N)=O [SS-31, D-Arg-dimethylTyr-Lys-Phe-NH2] (H-[dR][Dmt]KF-NH2)
[A] 20700
